Measured values drawn from paper PMC3407795 for this set.

testDetails: Biodistribution in HEK293-hsst2A+ tumor-bearing mice
Type: in vivo
conditionNotes: mouse, stomach, iv, 10 pmol, total radioactivity; HEK293-hsst2A+ tumor SCID mice, 4 h pi; mean ± SD; read-out: Stomach uptake

compound	tissue uptake at 4 h
C[C@H](NC(=O)CN1CCN(CC(=O)O)CCN(CC(=O)O)CCN(CC(=O)O)CC1)C(=O)NCC(=O)N[C@H]1CSSC[C@@H](C(=O)O)NC(=O)[C@H](CO)NC(=O)[C@H]([C@@H](C)O)NC(=O)[C@H](Cc2ccccc2)NC(=O)[C@H]([C@@H](C)O)NC(=O)[C@H](CCCCN)NC(=O)[C@@H](Cc2c[nH]c3ccccc23)NC(=O)[C@H](Cc2ccccc2)NC(=O)[C@H](Cc2ccccc2)NC(=O)[C@H](CC(N)=O)NC(=O)[C@H](CCCCN)NC1=O [[^111In]AT2S, metal not drawn]	1.96 %ID/g

* * *

testDetails: Biodistribution in HEK293-hsst3+ tumor-bearing mice
Format: in vivo
conditionNotes: mouse, spleen, iv, 10 pmol total peptide, total radioactivity; HEK293-hsst3+ tumor SCID mice, 4 h pi; mean ± SD; read-out: Spleen uptake

compound	valueUnits	tissue uptake at 4 h
C[C@H](NC(=O)CN1CCN(CC(=O)O)CCN(CC(=O)O)CCN(CC(=O)O)CC1)C(=O)NCC(=O)N[C@H]1CSSC[C@@H](C(=O)O)NC(=O)[C@H](CO)NC(=O)[C@H]([C@@H](C)O)NC(=O)[C@H](Cc2ccccc2)NC(=O)[C@H]([C@@H](C)O)NC(=O)[C@H](CCCCN)NC(=O)[C@@H](Cc2c[nH]c3ccccc23)NC(=O)[C@H](Cc2ccccc2)NC(=O)[C@H](Cc2ccccc2)NC(=O)[C@H](CC(N)=O)NC(=O)[C@H](CCCCN)NC1=O [[^111In]AT2S, metal not drawn]	%ID/g	0.82

* * *

testDetails: Biodistribution in AR4-2J tumor-bearing mice
Type: in vivo
conditionNotes: female, mouse, spleen, iv, 10 pmol total peptide, total radioactivity; AR4-2J tumor SCID mice, 4 h pi; mean ± SD; read-out: Spleen uptake

molecule	valueUnits	tissue uptake at 4 h
C[C@H](NC(=O)CN1CCN(CC(=O)O)CCN(CC(=O)O)CCN(CC(=O)O)CC1)C(=O)NCC(=O)N[C@H]1CSSC[C@@H](C(=O)O)NC(=O)[C@H](CO)NC(=O)[C@H]([C@@H](C)O)NC(=O)[C@H](Cc2ccccc2)NC(=O)[C@H]([C@@H](C)O)NC(=O)[C@H](CCCCN)NC(=O)[C@@H](Cc2c[nH]c3ccccc23)NC(=O)[C@H](Cc2ccccc2)NC(=O)[C@H](Cc2ccccc2)NC(=O)[C@H](CC(N)=O)NC(=O)[C@H](CCCCN)NC1=O [[^111In]AT2S, metal not drawn]	%ID/g	1.1

* * *

testDetails: Biodistribution in HEK293-hsst5+ tumor-bearing mice
Type: in vivo
conditionNotes: mouse, lung, iv, 10 pmol, total radioactivity; HEK293-hsst5+ tumor SCID mice, 4 h pi; mean ± SD; read-out: Lung uptake

compound	valueUnits	tissue uptake at 4 h
C[C@H](NC(=O)CN1CCN(CC(=O)O)CCN(CC(=O)O)CCN(CC(=O)O)CC1)C(=O)NCC(=O)N[C@H]1CSSC[C@@H](C(=O)O)NC(=O)[C@H](CO)NC(=O)[C@H]([C@@H](C)O)NC(=O)[C@H](Cc2ccccc2)NC(=O)[C@H]([C@@H](C)O)NC(=O)[C@H](CCCCN)NC(=O)[C@@H](Cc2c[nH]c3ccccc23)NC(=O)[C@H](Cc2ccccc2)NC(=O)[C@H](Cc2ccccc2)NC(=O)[C@H](CC(N)=O)NC(=O)[C@H](CCCCN)NC1=O [[^111In]AT2S, metal not drawn]	%ID/g	0.56
